target: TRPV1 (Rattus norvegicus, UniProt O35433); assay: electrophysiology, Hill fit
Sequence (O35433 whole entry): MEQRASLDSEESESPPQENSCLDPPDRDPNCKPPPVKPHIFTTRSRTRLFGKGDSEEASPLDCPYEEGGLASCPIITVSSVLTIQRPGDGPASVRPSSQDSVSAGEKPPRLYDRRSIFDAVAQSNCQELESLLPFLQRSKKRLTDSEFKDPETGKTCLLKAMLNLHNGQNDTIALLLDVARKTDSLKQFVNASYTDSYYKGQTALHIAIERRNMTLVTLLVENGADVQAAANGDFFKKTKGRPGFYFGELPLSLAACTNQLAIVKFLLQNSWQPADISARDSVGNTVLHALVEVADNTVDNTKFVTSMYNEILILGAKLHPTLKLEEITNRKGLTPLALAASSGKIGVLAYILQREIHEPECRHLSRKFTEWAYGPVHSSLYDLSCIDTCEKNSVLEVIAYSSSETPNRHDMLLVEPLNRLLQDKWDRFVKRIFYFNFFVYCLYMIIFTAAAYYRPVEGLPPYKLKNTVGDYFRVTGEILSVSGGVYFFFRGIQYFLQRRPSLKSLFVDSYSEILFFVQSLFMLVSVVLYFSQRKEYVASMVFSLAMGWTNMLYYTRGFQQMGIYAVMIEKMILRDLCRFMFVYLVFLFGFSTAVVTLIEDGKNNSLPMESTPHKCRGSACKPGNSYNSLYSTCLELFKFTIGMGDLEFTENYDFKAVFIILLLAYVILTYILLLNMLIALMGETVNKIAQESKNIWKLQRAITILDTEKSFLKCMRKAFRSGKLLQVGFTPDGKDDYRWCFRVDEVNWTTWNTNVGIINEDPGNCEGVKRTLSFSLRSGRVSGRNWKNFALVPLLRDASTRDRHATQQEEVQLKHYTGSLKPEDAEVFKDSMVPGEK

Binder | Kd [µM]
TNCAKEGEVCGWGSKCCHGLDCPLAFIPYC [double-knot toxin (DkTx) K2 knot] | 8.5

// data source = paper PMC4764579
